Target Desc: AChE (EC 3.1.1.7) from electric eel (Electrophorus electricus)
Construct: purchased Sigma-Aldrich C3389
Sequence (O42275 24-633): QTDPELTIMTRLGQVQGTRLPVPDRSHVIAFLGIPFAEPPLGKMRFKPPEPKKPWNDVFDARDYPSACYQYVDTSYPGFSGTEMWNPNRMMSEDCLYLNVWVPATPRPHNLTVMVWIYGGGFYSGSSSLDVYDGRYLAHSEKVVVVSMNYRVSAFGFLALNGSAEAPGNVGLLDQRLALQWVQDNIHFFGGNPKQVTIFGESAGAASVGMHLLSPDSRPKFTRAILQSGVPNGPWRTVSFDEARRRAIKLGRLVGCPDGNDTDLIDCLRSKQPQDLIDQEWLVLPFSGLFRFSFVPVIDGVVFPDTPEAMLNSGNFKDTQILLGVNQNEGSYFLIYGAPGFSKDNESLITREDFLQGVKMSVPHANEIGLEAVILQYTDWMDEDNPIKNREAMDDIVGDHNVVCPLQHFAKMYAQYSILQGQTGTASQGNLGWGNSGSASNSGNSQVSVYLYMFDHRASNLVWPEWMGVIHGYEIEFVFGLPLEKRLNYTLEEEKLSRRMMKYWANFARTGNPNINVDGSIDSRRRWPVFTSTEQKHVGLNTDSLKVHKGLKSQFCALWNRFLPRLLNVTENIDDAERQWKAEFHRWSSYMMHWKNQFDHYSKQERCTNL
Protocol Notes: biochemical
Conditions: AChE from electric eel; mean ± SEM of three experiments
Parameter: log10 of IC50. Scope: all listed entries.
Form field - Quantity: IC50; Unit: nM; Scale: log10

Memo: N#Cc1cccc(/C=C/C(=O)NCCCCCCNc2c3c(nc4ccccc24)CCCC3)c1 , reported log10 of IC50: 0.71

Memo: O=C(/C=C/c1cccc(C(F)(F)F)c1)NCCCCCCNc1c2c(nc3ccccc13)CCCC2 , reported log10 of IC50: 1.79

Memo: O=C(/C=C/c1ccccc1C(F)(F)F)NCCCCCCNc1c2c(nc3ccccc13)CCCC2 , reported log10 of IC50: 1.62
